assay_remarks: Growth inhibition, sulforhodamine B (SRB) assay, CH1
Type: cell-based
measurement_conditions: human, CH1 ovarian carcinoma cells, CH1, 96 hr incubation, tested as salts, read-out: Cytotoxicity - IC50 CH1
Recorded IC50 at 96 h values for a group of compounds are listed next.

>  <compound>
CC1(C)CC2CC(C)(CN2CCC(=O)Nc2ccc3c(Nc4ccc(N)cc4)c4ccc(NC(=O)CCN5CC6(C)CC5CC(C)(C)C6)cc4nc3c2)C1

>  <reported_property>
IC50 at 96 h

>  <result>
2.3 µM

$$$$
>  <compound>
O=C(CCN1CCCC1)Nc1ccc2c(NCCN3CCCCC3)c3ccc(NC(=O)CCN4CCCC4)cc3nc2c1

>  <reported_property>
IC50 at 96 h

>  <result>
> 25 µM

$$$$
>  <compound>
CN1CCCC1CCNc1c2ccc(NC(=O)CCN3CCCC3)cc2nc2cc(NC(=O)CCN3CCCC3)ccc12 (stereo not shown)

>  <reported_property>
IC50 at 96 h

>  <result>
> 25 µM

$$$$

Q: Please report the recorded IC50 at 96 h for CN(C)CCC(=O)Nc1ccc2nc3ccc(NC(=O)CCN(C)C)cc3c(O)c2c1 .
A: > 25 µM

----------
assay_remarks: Growth inhibition, sulforhodamine B (SRB) assay, A431
Type: cell-based
measurement_conditions: human, A431 cervix carcinoma cells, A431, 96 hr incubation, tested as salts, read-out: Cytotoxicity - IC50 A431
Procedure: Growth inhibition was measured in three human ovarian carcinoma cell lines (A2780, CH1, and SKOV-3) and one human cervix carcinoma cell line (A431) using the sulforhodamine B (SRB) assay. Briefly, between 3000 and 6000 cells were seeded into the wells of 96-well microtiter plates and allowed to attach overnight. […]
Recorded IC50 at 96 h values for a group of molecules are listed next.

Illustrative cases are given below, each with its answer.
>  <molecule>
CN(C)CCCNc1c2ccc(NC(=O)CCN3CCCC3)cc2nc2cc(NC(=O)CCN3CCCC3)ccc12

>  <IC50 at 96 h>
> 25000 nM

$$$$
>  <molecule>
CN(C)c1ccc(Nc2c3ccc(NC(=O)CCN4CC5(C)CC4CC(C)(C)C5)cc3nc3cc(NC(=O)CCN4CC5(C)CC4CC(C)(C)C5)ccc23)cc1

>  <IC50 at 96 h>
2500 nM

$$$$
>  <molecule>
O=C(CCN1CCCCC1CO)Nc1ccc2[nH]c3ccc(NC(=O)CCN4CCCCC4CO)cc3c(=O)c2c1 (stereo not shown)

>  <IC50 at 96 h>
> 25000 nM

$$$$
>  <molecule>
CN(C)CCC(=O)Nc1ccc2nc3ccc(NC(=O)CCN(C)C)cc3c(O)c2c1

>  <IC50 at 96 h>
> 25000 nM

$$$$
>  <molecule>
CC(=O)c1ccc(Nc2c3ccc(NC(=O)CCN4CCCC4)cc3nc3cc(NC(=O)CCN4CCCC4)ccc23)cc1

>  <IC50 at 96 h>
2200 nM

$$$$

Q: Please report the recorded IC50 at 96 h for CN(C)c1cccc(Nc2c3ccc(NC(=O)CCN4CCCC4)cc3nc3cc(NC(=O)CCN4CCCC4)ccc23)c1 .
A: 2000 nM

Q: Please report the recorded IC50 at 96 h for CC1CCCCN1CCC(=O)Nc1ccc2nc3ccc(NC(=O)CCN4CCCCC4C)cc3c(O)c2c1 (stereo not shown) .
A: > 25000 nM
